Tested on: OVCAR-5 ovarian
experimentNotes: NCI tumour cell line growth inhibition, 48 h
Listing of recorded TGI by entry.

compound	targetEntity	TGI
CC(=O)c1c2c(cc3c1CC1(C3)Cc3cc4c(c(C(=O)O)c3C1)CCCC4)CCCC2 (centres undefined) (tested in a mixture with another compound)	OVCAR-5 ovarian	> 100 µM
COC(=O)C1=C(C)C(=O)[C@H]2C(C(=O)OC)CCCC[C@@H]12 (some centres undefined)	OVCAR-5 ovarian	> 100 µM
CC(C)(C)c1cc(OCc2nnc3sc(-c4ccc(Cl)cc4)nn23)c(Cl)cc1OCc1nnc2sc(-c3ccc(Cl)cc3)nn12	OVCAR-5 ovarian	88.9 µM
CC1(C)c2ccccc2C(C)(C)C(C(=O)Nc2ccccc2)C1C(=O)O (centres undefined)	OVCAR-5 ovarian	> 100 µM
N#CC1=C(N)Oc2c(ccc3ccccc23)C1c1cccs1 (centres undefined)	OVCAR-5 ovarian	16.5 µM
CC(=O)NNc1nc(C)c(C(=O)/C=C/c2cccc([N+](=O)[O-])c2)s1	OVCAR-5 ovarian	> 100 µM
O=C(CCc1ccc(O)c(O)c1)OCCc1ccccc1	OVCAR-5 ovarian	> 100 µM
O=c1c2ccc(Cl)cc2oc2c(CNc3ccc(S(=O)(=O)Nc4nccs4)cc3)cccc12	OVCAR-5 ovarian	> 100 µM

Continue with the next compound.
Query :: Record request: TGI value, item CC(=O)OCC1(C)C(OC(C)=O)CCC2(C)C(CC(OC(C)=O)C3=CCOC3=O)C(O)(CO)CCC12 (centres undefined)
Result :: > 100 µM

* * *

Tested on: HCT-116 colon
experimentNotes: NCI tumour cell line growth inhibition, 48 h
quantityKind: TGI

Before answering, review these 2 worked examples.
compound	TGI
O=C(Nc1ccc(Cl)cc1)c1cc2c(cc1Cl)Sc1nccn1S2(=O)=O	> 100 µM
COc1ccc(Nc2nc3cc(C(F)(F)F)ccc3nc2C(=O)O)cc1	33.5 µM

Continue with the next compound.
Query :: # query: TGI | item NC1C(O)C(O)C(CO)OC1n1cc(F)c(=O)[nH]c1=O (stereo not drawn) | system: HCT-116 colon
Result :: > 100 µM

* * *

System: MCF7 breast
experimentNotes: NCI tumour cell line growth inhibition, 48 h
quantityKind: TGI

Reference set, count: 3
compound	quantityKind	experimentalValue
Cc1ccc(Cc2nc(=S)[nH][nH]2)cc1	TGI	> 100 µM
C/C(=N/OC(=O)c1cccc2c(=O)c3ccccc3[nH]c12)[C@H]1CC[C@H]2[C@@H]3CCC4=C/C(=N/OC(=O)c5cccc6c(=O)c7ccccc7[nH]c56)CC[C@]4(C)[C@H]3CC[C@]12C	TGI	26.4 µM
COc1cc2c[n+](C)c3c4cc(OC)c(OC)cc4c(OCc4ccccc4)cc3c2cc1OC	TGI	5.05 µM

Please examine the following record next.
Query :: Any idea what TGI came out for "c1ccc2c(c1)CCN2CCN1CCc2ccccc21" on MCF7 breast?
Result :: > 10 µM

* * *

Listed here are molecules together with their documented TGI.
System: A549 NSCLC
experimentNotes: NCI tumour cell line growth inhibition, 48 h

inputSmiles	TGI
COC(=O)CCc1ccc2c(c1)[C@H](C(=O)OC)[C@@H](c1ccc(O)cc1)O2	> 100 µM

Query :: Sample "Cc1cc(N(CCNc2ccnc3cc(Cl)ccc23)Cc2cccs2)nc(Cl)n1" — what was its TGI?
Result :: 4.5 µM

Query :: Name the recorded TGI for "C=C1CCc2ccccc2C1=O" .
Result :: > 100 µM

* * *

Documented TGI across a set of compounds
Tested on: SR leukemia
experimentNotes: NCI tumour cell line growth inhibition, 48 h

compound	TGI
CC(=O)NC(CC(C)C)C(=O)NC(CC(C)C)C(=O)NC(C=O)CCCN=C(N)N (stereo not given)	> 100 µM

Query :: // returns reported TGI for input "CC(C)C[C@H](NC(=O)Cn1ccc(Nc2ccccc2)cc1=O)B(O)O"
Result :: > 100 µM

Query :: Requested read-out: TGI. Entry: "COc1ccc(Nc2nc3c(N)cc(C(F)(F)F)cc3nc2-c2ccccc2)cc1OC"
Result :: > 100 µM

Query :: Reported TGI for "CCCN(CCC)c1ccc(CO)c(Cl)c1" : what is it?
Result :: 45.9 µM

Query :: Sample Cc1nn(C(=O)c2ccccc2O)c2c1C(c1ccco1)SC(N)=N2 (stereo not given) — what was its TGI?
Result :: > 10 µM

* * *

Tested on: OVCAR-5 ovarian
experimentNotes: NCI tumour cell line growth inhibition, 48 h; in the data active means GI50 below about 0.43 µM; inactive means the rest
Classes to choose from: true (1) = active, false (0) = inactive

Query :: Call for entry "C=C1C(=O)O[C@H]2[C@H]1CC/C(COC(=O)/C=C\C(=O)NCc1ccc(Cn3c(=O)sn(CCCI)c3=O)cc1)=C\CC[C@@]1(C)O[C@@H]21" :
Result :: false (0)

Query :: Kindly provide the recorded test outcome for the following molecule: C[C@]12CCC(=O)CC1CC[C@@H]1C2CC[C@@]2(C)C1CC[C@@H]2OC(=O)CC[Se][Se]CCC(=O)O[C@H]1CCC2[C@@H]3CCC4CC(=O)CC[C@]4(C)C3CC[C@@]21C (stereo partly drawn)
Result :: false (0)

Query :: GET /call?item= "C[CH2][Pb]([CH2]C)([CH2]C)[O]C(=O)COc1ccccc1" returns the recorded outcome of this test.
Result :: false (0)

Query :: Any idea what this test logged for "O=S(=O)(Nc1ccc(Cl)cc1)c1ccc(-c2cnc(C3CC3)o2)cc1" ?
Result :: false (0)

Query :: Record request — test call for "CCCCCCCC(=O)SCC/C=C/[C@@H]1CC(=O)NCc2cccc(n2)CN(Cc2ccc3ccccc3c2)CC(=O)N[C@@H](C(C)C)C(=O)O1"
Result :: false (0)

Query :: Recorded test call requested for "Cc1cc(N(CCNc2ccnc3cc(Cl)ccc23)Cc2cccs2)nc(Cl)n1"
Result :: false (0)

Query :: In this assay, the call recorded for CC(C)=CC(=O)OC1C(CO)OC(Oc2cc(O)c3c(=O)cc(-c4ccc(O)c(O)c4)oc3c2)C(OC2OC(C)C(O)C(O)C2O)C1O (stereo not drawn) was what?
Result :: false (0)

Query :: What classification did "Cc1ccc(Cl)cc1-c1nc(N)nc(Nc2ccc(Br)cc2)n1" end up with in this test?
Result :: true (1)

* * *

Entries and their GI50
System: OVCAR-8 ovarian
experimentNotes: NCI tumour cell line growth inhibition, 48 h

Please review the entries below; each comes with its answer.
molecule	experimentalValue
CC(C)=CC(=O)OC1C(CO)OC(Oc2cc(O)c3c(=O)cc(-c4ccc(O)c(O)c4)oc3c2)C(OC2OC(C)C(O)C(O)C2O)C1O (centres undefined)	> 100 µM
COc1ccc2c(c1)[n+]([O-])c(C#N)c(NC(=O)c1cccs1)[n+]2[O-]	> 100 µM

Query :: Which value of GI50 has been reported for "O=c1ccc2nc(C(F)(F)F)nn(-c3ccccc3)c-2c1" in the records?
Result :: 4.21 µM

Query :: Requested read-out: GI50. Entry: "Cc1nc2c(o1)C(=O)c1ccccc1C2=Nc1ccccc1"
Result :: 4.16 µM

* * *

System: PC-3 prostate
experimentNotes: NCI tumour cell line growth inhibition, 48 h; in the data active means GI50 below about 0.43 µM; inactive means the rest
Output constraint: value belongs to t (active), f (inactive)

Some entries whose results are on file:
inputSmiles	targetEntity	qualitativeLabel
COC(=O)C1=CN(CC2=CC(=O)C(C)=CC2=O)C=C(C(=O)OC)C1c1cc(OC)ccc1OC	PC-3 prostate	f
Cc1ccc(NC2=N[C@]34CC(=O)CC[C@]3(C)[C@H]3CC[C@]5(C)C(=O)CC[C@H]5[C@@H]3C[C@@H]4S2)c(C)c1	PC-3 prostate	f

Now consider the entry below.
Query :: Returns: the outcome recorded for "CC(=O)N1CCC(Nc2cc(C(=O)NC[C@H](O)CN3CCc4ccccc4C3)ncn2)CC1" in this assay.
Result :: f

* * *

System: M14 melanoma
experimentNotes: NCI tumour cell line growth inhibition, 48 h; in the data active means GI50 below about 0.43 µM; inactive means the rest
Select the matching outcome among t for active, f for inactive

Query :: Please state the recorded outcome for this compound: CC(=O)OC1Oc2ccccc2-c2oc(=O)c(-c3ccc(F)cc3)cc21 (stereo not drawn)
Result :: f

Query :: Just curious, what result did "O=[N+]([O-])c1ccc2c(c1)C(=NO)c1cc([N+](=O)[O-])ccc1-2" get here?
Result :: f

Query :: What is the recorded call for this compound in the test? "Oc1cccc(-c2nc(-c3n[nH]c(=S)n3-c3ccccc3)cc3c2[nH]c2ccccc23)c1"
Result :: f

* * *

System: LOX IMVI melanoma
experimentNotes: NCI tumour cell line growth inhibition, 48 h; in the data active means GI50 below about 0.43 µM; inactive means the rest
Could you please pick one outcome from this set? 1.0 for active, 0.0 for inactive

Solved cases below.
compound	qualitativeLabel
O=C(N/N=C(\CN1CCN(c2cc3[nH]cc(C(=O)O)c(=O)c3cc2F)CC1)c1ccc(Cl)cc1)c1ccncc1	0.0
O=C(Nc1ccc([As]=[As]c2ccc(NC(=O)c3ccccc3)cc2)cc1)c1ccccc1 (stereo not given)	1.0
[Cl-].[Nd+3].[O-]/N=C(\c1ccccc1)c1ccccn1.[O-]/N=C(\c1ccccc1)c1ccccn1.[O-]/N=C(\c1ccccc1)c1ccccn1	0.0
CN(C)CCCNCc1ccc(-c2ccc(F)c(Cl)c2)o1	0.0

Query :: For "O=C(CCCCN1CCOCC1)Nc1ccc(Cn2nnc3c2C(=O)c2nnn(Cc4ccc(NC(=O)CCCCN5CCOCC5)cc4)c2C3=O)cc1" , what call appears in the results of this test?
Result :: 1.0
